Hey, just so you know, these numbers are from patent US11512079B2.

system: Aspergillus fumigatus MYA3626; experiment: In vitro antifungal assay (Example IX), microdilution broth, MEC; assay type: cell-based; details: minimum effective concentration (shortening of hyphae), 35° C., 40-48 h, RPMI1640
test readout: minimal effective concentration

# annotated cases, reported minimal effective concentration shown
| compound | minimal effective concentration |
| --- | --- |
| Nc1ncccc1-c1cc(Cc2ccc(Cn3cc4ccccc4n3)cc2)no1 | 0.1 to 1 µg/mL |
| Nc1ncccc1-c1cc(Cc2ccc(OCCc3ccc(F)cc3)nc2)no1 | 0.1 to 1 µg/mL |
| Nc1ncccc1-c1cc(Cc2ccc(OCc3ccoc3)nc2)no1 | 0.01 to 0.1 µg/mL |
| Nc1ncccc1-c1cc(Cc2ccc(OCc3ccnc(Cl)c3)cc2)no1 | 0.01 to 0.1 µg/mL |
| Nc1ncccc1-c1cc(Cc2ccc(Cn3cnnc3)cc2)no1 | > 1 µg/mL |
| Nc1ncccc1-c1cc(Cc2ccc(CNc3cccc(F)n3)cc2)no1 | 0.01 to 0.1 µg/mL |
| Nc1ncccc1-c1cc(Cc2ccc(N3CCCC3c3ccccc3)nc2)no1 (stereo not shown) | > 1 µg/mL |
| Nc1ncccc1-c1cc(Cc2ccc(N3CCOCC3)nc2)no1 | > 1 µg/mL |
| Nc1ncccc1-c1cnn(Cc2ccc(OCc3ccccc3)nc2)c1 | 0.1 to 1 µg/mL |
| Nc1ncccc1-c1cc(Cc2ccc(OCCc3cc(F)c(F)cc3F)nc2)no1 | 0.1 to 1 µg/mL |

QUERY: What does the data say about its minimal effective concentration? Entry: `COc1ccc(F)cc1OCc1ccc(Cc2cc(-c3cccnc3N)on2)cc1`
RESULT: 0.1 to 1 µg/mL

QUERY: What does the data say about its minimal effective concentration? Entry: `Nc1ncccc1-c1cc(Cc2ccc(OCC3CC3)nc2)no1`
RESULT: 0.01 to 0.1 µg/mL

QUERY: What does the data say about its minimal effective concentration? Entry: `Nc1ncccc1-c1cc(Cc2cnc(Oc3ccccc3F)c(F)c2)no1`
RESULT: 0.01 to 0.1 µg/mL

QUERY: What does the data say about its minimal effective concentration? Entry: `Nc1ncccc1-c1cc(Cc2ccc(Nc3cccc(F)c3)nc2)no1`
RESULT: 0.1 to 1 µg/mL

QUERY: What does the data say about its minimal effective concentration? Entry: `Nc1ncccc1-c1cc(Cc2cnc(Oc3cc(F)cc(F)c3)c(F)c2)no1`
RESULT: 0.1 to 1 µg/mL

QUERY: What does the data say about its minimal effective concentration? Entry: `Nc1ncccc1-c1cc(Cc2ccc(OCc3ccco3)nc2)no1`
RESULT: 0.1 to 1 µg/mL

QUERY: What does the data say about its minimal effective concentration? Entry: `Nc1ncccc1-c1cc(Cc2ccc(OCc3ccccc3F)nc2)no1`
RESULT: ≤ 0.01 µg/mL

QUERY: What does the data say about its minimal effective concentration? Entry: `Nc1ncccc1-c1cc(Cc2ccc(Cc3ccco3)cc2)no1`
RESULT: ≤ 0.01 µg/mL

QUERY: What does the data say about its minimal effective concentration? Entry: `Nc1ncccc1-c1cc(Cc2ccc(CCl)cc2)no1`
RESULT: 0.1 to 1 µg/mL

QUERY: What does the data say about its minimal effective concentration? Entry: `Nc1ncccc1-c1cc(Cc2ccc(OCCc3ccccn3)nc2)no1`
RESULT: 0.1 to 1 µg/mL

QUERY: What does the data say about its minimal effective concentration? Entry: `Nc1ncccc1-c1cc(Cc2ccc(Cc3cn[nH]c3)cc2)no1`
RESULT: 0.1 to 1 µg/mL

QUERY: What does the data say about its minimal effective concentration? Entry: `Cc1occc1COc1ccc(Cc2cc(-c3cccnc3N)on2)cn1`
RESULT: 0.1 to 1 µg/mL

====

system: Aspergillus fumigatus MYA3626; assay: In vitro antifungal assay (Example IX), microdilution broth, MEC; assay type: cell-based; details: minimum effective concentration (shortening of hyphae), 35° C., 40-48 h, RPMI1640
// reported minimal effective concentration per item

# annotated cases, reported minimal effective concentration shown
| smiles text | observed measurement |
| --- | --- |
| Nc1ncccc1-c1cc(Cc2ccc(Sc3ccccc3)nc2)no1 | 0.01 to 0.1 µg/mL |
| Nc1ncccc1-c1cc(Cc2cnc(SCc3ccccc3)nc2)no1 | 0.1 to 1 µg/mL |
| COc1cc(F)cc(Cc2ccc(Cc3cc(-c4cccnc4N)on3)cc2)c1 | 0.1 to 1 µg/mL |

QUERY: Find minimal effective concentration (Aspergillus fumigatus MYA3626) for the entry `Nc1ncccc1-c1cc(Cc2ccc(OCc3cccc(F)c3)cc2)no1`
RESULT: 0.01 to 0.1 µg/mL

QUERY: Find minimal effective concentration (Aspergillus fumigatus MYA3626) for the entry `Nc1ncccc1-c1cc(Cc2ccc(Oc3cccc(F)c3)nc2)no1`
RESULT: 0.01 to 0.1 µg/mL

====

The following are reported MIC results, target or system Cryptococcus neoformans H99.

| molecule | MIC |
| --- | --- |
| Nc1ncccc1-c1cc(Cc2ccc(C(=O)c3ccccc3)cc2)no1 | 0.1 to 1 µg/mL |

QUERY: Find MIC (Cryptococcus neoformans H99) for the entry `Nc1ncccc1-c1cc(Cc2ccc(Oc3ccc(F)cc3)nc2)no1`
RESULT: 0.1 to 1 µg/mL

QUERY: Find MIC (Cryptococcus neoformans H99) for the entry `Nc1ncccc1-c1cc(Cc2ccc(OCCc3ccccc3)nc2)no1`
RESULT: 0.01 to 0.1 µg/mL

QUERY: Find MIC (Cryptococcus neoformans H99) for the entry `Nc1ncccc1-c1cc(Cc2ccc(Oc3ncccn3)c(F)c2)no1`
RESULT: 0.1 to 1 µg/mL

QUERY: Find MIC (Cryptococcus neoformans H99) for the entry `Nc1ncccc1-c1cc(Cc2ccc(Oc3nc(F)c(F)cc3F)cc2)no1`
RESULT: 0.01 to 0.1 µg/mL

QUERY: Find MIC (Cryptococcus neoformans H99) for the entry `c1ccc(COc2ccc(Cn3cc(-c4cccnc4)cn3)cn2)cc1`
RESULT: 0.1 to 1 µg/mL

====

test system: Rhizomucor pusillus 46342; test: In vitro antifungal assay (Example IX), microdilution broth, MEC; assay type: cell-based; details: minimum effective concentration (shortening of hyphae), 35° C., 40-48 h, RPMI1640
test readout: minimal effective concentration

# annotated cases, reported minimal effective concentration shown
| molecule | minimal effective concentration |
| --- | --- |
| Nc1ncccc1-c1cc(Cc2ccc(OCc3ccccc3F)cc2)no1 | 0.1 to 1 µg/mL |
| Nc1ncccc1-c1cc(Cc2ccc(OCc3ccnc(Br)c3)nc2)no1 | > 1 µg/mL |
| Nc1ncccc1-c1cc(Cc2ccc(Oc3ncc(F)cc3F)cc2)no1 | 0.1 to 1 µg/mL |
| Nc1ncccc1-c1cc(Cc2ccc(Cn3cccn3)cc2)no1 | > 1 µg/mL |
| Nc1ncccc1-c1cc(Cc2ccc(OCc3ncccn3)nc2)no1 | > 1 µg/mL |

QUERY: Find minimal effective concentration (Rhizomucor pusillus 46342) for the entry `Nc1ncccc1-c1cc(Cc2ccc(Cc3cncnc3)cc2)no1`
RESULT: > 1 µg/mL

QUERY: Find minimal effective concentration (Rhizomucor pusillus 46342) for the entry `Nc1ncccc1-c1cc(Cc2ccc(Oc3ncccc3F)cc2)no1`
RESULT: 0.1 to 1 µg/mL

QUERY: Find minimal effective concentration (Rhizomucor pusillus 46342) for the entry `Nc1ncccc1-c1cc(Cc2ccc(OCCc3ccccc3F)nc2)no1`
RESULT: 0.1 to 1 µg/mL

QUERY: Find minimal effective concentration (Rhizomucor pusillus 46342) for the entry `Nc1ncccc1-c1cc(Cc2ccc(Cc3cccnc3)cc2)no1`
RESULT: 0.1 to 1 µg/mL

QUERY: Find minimal effective concentration (Rhizomucor pusillus 46342) for the entry `N#Cc1cnn(Cc2ccc(Cc3cc(-c4cccnc4N)on3)cc2)c1`
RESULT: > 1 µg/mL

QUERY: Find minimal effective concentration (Rhizomucor pusillus 46342) for the entry `Cc1ccc(Cc2ccc(Cc3cc(-c4cccnc4N)on3)cc2)o1`
RESULT: 0.01 to 0.1 µg/mL

QUERY: Find minimal effective concentration (Rhizomucor pusillus 46342) for the entry `Nc1ncccc1-c1cc(Cc2ccc(NCc3ccccc3F)nc2)no1`
RESULT: > 1 µg/mL

QUERY: Find minimal effective concentration (Rhizomucor pusillus 46342) for the entry `C#CCCOc1ccc(Cc2cc(-c3cccnc3N)on2)cn1`
RESULT: 0.1 to 1 µg/mL

QUERY: Find minimal effective concentration (Rhizomucor pusillus 46342) for the entry `Nc1ncccc1-c1cc(Cc2ccc(OCc3cccc4ccccc34)nc2)no1`
RESULT: > 1 µg/mL

QUERY: Find minimal effective concentration (Rhizomucor pusillus 46342) for the entry `Nc1ncccc1-c1cc(Cc2ccc(CC3=CCCC3)cc2)no1`
RESULT: 0.1 to 1 µg/mL

====

test system: Cryptococcus gattii
test readout: MIC

# annotated cases, reported MIC shown
| smiles text | observed measurement |
| --- | --- |
| Nc1ncccc1-c1cc(Cc2ccc(Cc3cccnc3)cc2)no1 | 0.01 to 0.1 µg/mL |
| Nc1ncccc1-c1cc(Cc2ccc(OCc3cscn3)nc2)no1 | 0.01 to 0.1 µg/mL |
| Nc1ncccc1-c1cc(Cc2ccc(COc3cccc(F)n3)cc2)no1 | 0.01 to 0.1 µg/mL |
| Cc1csc(COc2ccc(Cc3cc(-c4cccnc4N)on3)cn2)n1 | 0.01 to 0.1 µg/mL |
| CC(C)(O)c1cccc(Cc2ccc(Cc3cc(-c4cccnc4N)on3)cc2)c1 | > 1 µg/mL |

QUERY: Find MIC (Cryptococcus gattii) for the entry `Nc1ncccc1-c1cc(Cc2ccc(OCCc3ccc(F)cc3)nc2)no1`
RESULT: 0.1 to 1 µg/mL

QUERY: Find MIC (Cryptococcus gattii) for the entry `Nc1ncccc1-c1cc(Cc2ccc(Oc3cc(F)cc(F)c3)nc2)no1`
RESULT: 0.01 to 0.1 µg/mL

QUERY: Find MIC (Cryptococcus gattii) for the entry `Nc1ncccc1-c1cc(Cc2ccc(Nc3cccc(F)c3F)nc2)no1`
RESULT: 0.1 to 1 µg/mL

QUERY: Find MIC (Cryptococcus gattii) for the entry `Nc1ncccc1-c1cc(Cc2ccc(Cn3cnnc3)cc2)no1`
RESULT: > 1 µg/mL

QUERY: Find MIC (Cryptococcus gattii) for the entry `Nc1ccc(-c2cc(Cc3ccc(CNc4ccccc4)cc3)no2)c(N)n1`
RESULT: 0.1 to 1 µg/mL

QUERY: Find MIC (Cryptococcus gattii) for the entry `Nc1ncccc1-c1cc(Cc2ccc(OCc3ccccc3F)cc2)no1`
RESULT: 0.01 to 0.1 µg/mL
